B1: ELF3 (parent)
chain: LSKEYWDCLEGKKSKHAPRGTHLW

variants of: B1; experiment: protein stability index of a GFP-peptide fusion (GPS, HEK-293T) (PSI 1-6); higher = more stable; details: c terminus: a fixed tail appended;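 note: lentivirally expressed fusions sorted by FACS into six bins by GFP to DsRed ratio, PSI derived from sequencing read proportions per bin multiplied by bin number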
Cut-off 3 on protein stability index, inclusive. At or above means 1; below means -1.

-- ask Exam item: decide whether the reported protein stability index for `LSKEYWDCLEGKKSKHAPRGYHLW` is at least 3.
-- reply -1

-- ask Record: `LSKEYWDCVEGKKSKHAPRGTHLW`
-- reply 1

-- ask Record: `LSKEYWDCLEGKKSKHAPRHTHLW`
-- reply -1

-- ask Record: `LSKEYWDCLEGKKSKHAPRGLHLW`
-- reply -1

-- ask Record: `LSKEYWDCLEGAKSKHAPRGTHLW`
-- reply -1

-- ask Record: `LSKEYWDCMEGKKSKHAPRGTHLW`
-- reply 1

Further cases:
-- ask Exam item: decide whether the reported protein stability index for `LSKEYWDCLEGKKSKHAPRGTHLC` is at least 3.
-- reply 1

-- ask Record: `LSKEYWKCLEGKKSKHAPRGTHLW`
-- reply -1
